Where these numbers come from: patent US11753408B2

- TARGET OF ASSAY: mTOR (Homo sapiens)
- TEST DESCRIPTION: mTOR activity (no method described)
- Format: biochemical
VALUE KIND: log10(mTOR) (log10 of the value in µM)
Could you please treat all values as log10 of mTOR in µM?

Record excerpt, results attached:
## Task Could you share which log10(mTOR) value was measured for COc1cc(C(=O)NC2CC2)ccc1-n1c(=O)ccc2cnc3ccc(-c4ccc(F)c(O)c4)cc3c21 [Compound 272] ?
## Result 0.72

## Task Could you share which log10(mTOR) value was measured for O=C(NCCN1CCCCC1)c1ccc(-n2c(=O)ccc3cnc4ccc(-c5ccc(Cl)cc5)cc4c32)cc1 [Compound 265] ?
## Result 0.31

## Task Could you share which log10(mTOR) value was measured for COc1cc(C(=O)NC2CCN(CCO)CC2)ccc1-n1c(=O)ccc2cnc3ccc(-c4ccc(Cl)cc4)cc3c21 [Compound 254] ?
## Result 0.48

## Task Could you share which log10(mTOR) value was measured for O=Cc1ccc(-c2ccc3ncc4ccc(=O)n(-c5ccc(C(=O)N6CCOCC6)cc5)c4c3c2)cc1 [Compound 169] ?
## Result -0.20

## Task Could you share which log10(mTOR) value was measured for CN(C)C(=O)c1ccc(-n2c(=O)ccc3c[n+]([O-])c4ccc(-c5ccc(Cl)cc5)cc4c32)cc1 [Compound 208] ?
## Result 1.34

Others:
## Task Could you share which log10(mTOR) value was measured for O=C(NC1CC1)c1ccc(-n2c(=O)ccc3cnc4ccc(-c5ccc(Cl)c(F)c5)cc4c32)cc1 [Compound 308] ?
## Result 0.32

## Task Could you share which log10(mTOR) value was measured for Cc1nc2ccc(-c3ccc(Cl)cc3)cc2c2c1ccc(=O)n2-c1ccc(C(=O)N2CCOCC2)cc1 [Compound 234] ?
## Result 1.28

----------
- TEST DESCRIPTION: Microsomal stability (rat)
- Assay type: in vitro ADME
- RECORDED CONDITIONS: rat microsomes
One threshold, 10 min, splits the recorded Microsomal Stability (rat) T1/2 values: lower ones are met, equal or higher ones are not met.

Here's what some known entries look like.
## Task Below 10 min on Microsomal Stability (rat) T1/2? Entry CN(C)CCNC(=O)c1ccc(-n2c(=O)ccc3cnc4ccc(-c5ccc(Cl)cc5)cc4c32)cc1 [Compound 90]
## Result not met

## Task Below 10 min on Microsomal Stability (rat) T1/2? Entry O=C(NC1CC1)c1ccc(-n2c(=O)ccc3cnc4ccc(-c5ccc(Cl)cc5)cc4c32)cc1 [Compound 87]
## Result not met

## Task Below 10 min on Microsomal Stability (rat) T1/2? Entry Cc1cc(C(=O)NCCN2CCCCC2)ccc1-n1c(=O)ccc2cnc3ccc(-c4ccc(Cl)cc4)cc3c21 [Compound 291]
## Result met

Please examine the following record next.
## Task Below 10 min on Microsomal Stability (rat) T1/2? Entry O=C(c1ccc(-n2c(=O)ccc3cnc4ccc(-c5ccc(Cl)cc5)cc4c32)cc1Cl)N1CCOCC1 [Compound 116]
## Result met

----------
- TEST DESCRIPTION: PAMPA permeability
- Type: in vitro ADME
VALUE KIND: PAMPA Permeability

Record excerpt, results attached:
## Task Could you share which PAMPA Permeability value was measured for O=C(c1ccc(-n2c(=O)ccc3cnc4ccc(-c5ccc(CN6CCOCC6)cc5)cc4c32)cc1)N1CCOCC1 ?
## Result 35.5 ×10⁻⁶ cm/s

## Task Could you share which PAMPA Permeability value was measured for O=C(c1ccc(-n2c(=O)ccc3cnc4ccc(-c5ccc(F)cc5)cc4c32)cc1)N1CCOCC1 ?
## Result 10.1 ×10⁻⁶ cm/s

## Task Could you share which PAMPA Permeability value was measured for CN(C(=O)c1ccc(-n2c(=O)ccc3cnc4ccc(-c5ccc(Cl)cc5)cc4c32)cc1)C1CC1 ?
## Result 1420 ×10⁻⁶ cm/s

Others:
## Task Could you share which PAMPA Permeability value was measured for O=C(NCC(F)(F)F)c1ccc(-n2c(=O)ccc3cnc4ccc(-c5ccc(Cl)cc5)cc4c32)cc1 ?
## Result < 1 ×10⁻⁶ cm/s

## Task Could you share which PAMPA Permeability value was measured for CN1CC2CC1CN2C(=O)c1ccc(-n2c(=O)ccc3cnc4ccc(-c5ccc(Cl)cc5)cc4c32)cc1 (centres unmarked) ?
## Result 1390 ×10⁻⁶ cm/s

## Task Could you share which PAMPA Permeability value was measured for Cc1ccc(-c2ccc3ncc4c(c3c2)n(-c2cccc(C#N)c2)c(=O)n4C)cc1 ?
## Result < 1 ×10⁻⁶ cm/s

## Task Could you share which PAMPA Permeability value was measured for Cc1cc(C(=O)NC2CC2)ccc1-n1c(=O)ccc2cnc3ccc(-c4ccc(F)c(O)c4)cc3c21 ?
## Result 758 ×10⁻⁶ cm/s

## Task Could you share which PAMPA Permeability value was measured for CN(C)Cc1ccc(-c2ccc3ncc4ccc(=O)n(-c5ccc(C(=O)N(CCO)CCO)cc5)c4c3c2)cc1 ?
## Result < 1 ×10⁻⁶ cm/s

----------
- TEST DESCRIPTION: Microsomal stability (rat)
- Format: in vitro ADME
- RECORDED CONDITIONS: rat microsomes
VALUE KIND: Microsomal Stability (rat) T1/2

## Task Could you share which Microsomal Stability (rat) T1/2 value was measured for O=C(NC1CC1)c1ccc(-n2c(=O)ccc3cnc4ccc(-c5ccc(F)cc5)cc4c32)cn1 [Compound 301] ?
## Result >30 min

Others:
## Task Could you share which Microsomal Stability (rat) T1/2 value was measured for NC1(c2ccc(-c3ccc4ncc5ccc(=O)n(-c6ccc(C(=O)NC7CC7)cc6)c5c4c3)cc2)CC1 [Compound 97] ?
## Result >30 min

## Task Could you share which Microsomal Stability (rat) T1/2 value was measured for CC(O)c1ccc(-c2ccc3ncc4c(c3c2)n(-c2cccc(C#N)c2)c(=O)n4C)cc1 (stereo not shown) [Compound 443] ?
## Result >30.0 min

## Task Could you share which Microsomal Stability (rat) T1/2 value was measured for CCN(CC)C(=O)c1ccc(-n2c(=O)ccc3cnc4ccc(-c5ccc(Cl)cc5)cc4c32)cc1 [Compound 132] ?
## Result <1.0 min

----------
In this section, each of the molecules is paired with its reported log10(mTOR).
- TARGET OF ASSAY: mTOR (Homo sapiens, UniProt P42345)
- TEST DESCRIPTION: mTOR activity (no method described)
- Format: biochemical
Could you please treat all values as log10 of mTOR in µM?

## Task Could you share which log10(mTOR) value was measured for O=C(c1ccc(-n2c(=O)ccc3c(O)nc4ccc(-c5ccc(Cl)cc5)cc4c32)cc1)N1CCOCC1 ?
## Result 0.66

## Task Could you share which log10(mTOR) value was measured for CN(C)Cc1ccc(-c2ccc3ncc4ccc(=O)n(-c5ccc(C(=O)N6CCN(C)CC6)cc5)c4c3c2)cc1 ?
## Result 1.61

## Task Could you share which log10(mTOR) value was measured for O=C(c1ccc(-n2c(=O)ccc3cnc4ccc(-c5ccc(CCN6CCCC6)cc5)cc4c32)cc1)N1CCOCC1 ?
## Result 1.25

## Task Could you share which log10(mTOR) value was measured for CN1CC2CC1CN2C(=O)c1ccc(-n2c(=O)ccc3cnc4ccc(-c5ccc(Cl)cc5)cc4c32)cc1 (centres unmarked) ?
## Result 0.80

Others:
## Task Could you share which log10(mTOR) value was measured for O=C(c1ccc(-n2c(=O)ccc3cnc4ccc(-c5ccc(CN6CCC6)cc5)cc4c32)cc1)N1CCOCC1 ?
## Result 0.81

## Task Could you share which log10(mTOR) value was measured for O=C(c1ccc(-n2c(=O)ccc3cnc4ccc(-c5ccc(Cl)cc5)cc4c32)cc1)N1CCNCC1 ?
## Result 0.48

## Task Could you share which log10(mTOR) value was measured for Cn1c(=O)n(-c2ccc(N3CCNCC3)c(C#N)c2)c2c3cc(-c4cccc(C#N)c4)ccc3ncc21 ?
## Result -0.15

## Task Could you share which log10(mTOR) value was measured for CC(=O)N1CCN(c2cc(C)c(-n3c(=O)n(C)c4cnc5ccc(-c6cccc(C#N)c6)cc5c43)cc2C#N)CC1 ?
## Result 1.19

## Task Could you share which log10(mTOR) value was measured for Cc1cc(N2CCNCC2)c(C#N)cc1-n1c(=O)n(C)c2cnc3ccc(-c4cccs4)cc3c21 ?
## Result 1.28

## Task Could you share which log10(mTOR) value was measured for Cn1c(=O)n(-c2cccc(C#N)c2)c2c3cc(-c4ccc(F)cc4)ccc3ncc21 ?
## Result 1.73

## Task Could you share which log10(mTOR) value was measured for Cc1ccc(-c2ccc3ncc4c(c3c2)n(-c2cccc(C#N)c2)c(=O)n4C)cc1 ?
## Result 2.00

----------
- TEST DESCRIPTION: Microsomal stability (rat)
- Format: in vitro ADME
- RECORDED CONDITIONS: rat microsomes
VALUE KIND: Microsomal Stability (rat) T1/2

## Task Could you share which Microsomal Stability (rat) T1/2 value was measured for Cn1c(=O)n(-c2ccc(C(=O)O)cc2)c2c3cc(-c4ccc(Cl)cc4)ccc3ncc21 ?
## Result >30 min

## Task Could you share which Microsomal Stability (rat) T1/2 value was measured for COc1cc(C(=O)NCCN2CCNCC2)ccc1-n1c(=O)ccc2cnc3ccc(-c4ccc(Cl)cc4)cc3c21 ?
## Result >30 min

Others:
## Task Could you share which Microsomal Stability (rat) T1/2 value was measured for O=C(NC1CCN(CCO)CC1)c1ccc(-n2c(=O)ccc3cnc4ccc(-c5ccc(Cl)cc5)cc4c32)cc1 ?
## Result >30 min
